// reported apparent KD of MS2 coat protein per item
Tested on: MS2 coat protein
method_summary: apparent KD of MS2 coat protein; designed switch direction (-1 OFF switch, 1 ON switch): -1; higher = weaker reporter binding
experimental_conditions: input ligand: none
State just the number; it will be interpreted in nM.

UUUACAAGCUUAUGAUCCCACAUGAGGAUCACCCAUGUUGCUGCCGGUGACGGUAGCAUAACAUAUGCUCGUCUUAU [JL TOV1 3.57] (Eterna round: R97, puzzle: Sensor, turn-off variant 1)
1840
GUGUCACAUGAGGAUCACCCAUGUGAGGAUAUCAUGCUUCGUAGUAAACUACGAAGUGUGAGAAGGCACAUGAC [Omei Ex1 E1] (Eterna round: R97, puzzle: Exclusion 1)
47.8

# ---- query sequence ----
State its apparent KD of MS2 coat protein on MS2 coat protein: GGUACUCAAAGAGUACCAAUACGAACAUGAGGAUCACCCAUGUAGGAUAUGCUACUCAAAGAGUAGCAGAAGGAUAUGAUGGAU [Far Half Aptamer v15] (Eterna round: R96, puzzle: Exclusion NG 3) 34.2

* * *

Test system: MS2 coat protein
method_summary: apparent KD of MS2 coat protein; higher = weaker reporter binding
experimental_conditions: Eterna round: R107; input ligand: none
Binary call on apparent KD of MS2 coat protein: Fulfilled from 60 nM upward, Not fulfilled beneath that.

Example results:
GGAUAGGACACGGCCGCCACUAGCUAGGAUACUAGCAACAUUUGGGUACAUGAGGAUCACCCAUGUAGGACCGGGUGUCCUAUCG
Fulfilled
UCGCUCUGGGUGAAUCCCAGAGAUGUGGAAGGAGCGGAGGAAACUCCAGGUAGGUCGCCAUCGAACAUGAGGAUCACCCAUGUAC [Same State - Arginine A (Freestyle 28)]
Not fulfilled
CGGACAUGAGGAUCACCCAUGUCGUCGACGCGAGGACCGGUACGGCCGCCACUCGCAUGCCAAUGAGCGCAUGCGGCCUGGGUAU [Exclusion Tryp A GF5]
Not fulfilled
AUGCAUAGCCGAAGGAGCGCAGUAGGAUGACAUGAGGAUCACCCAUGUGUGUGAUGUGGAUUGCAGGUAGGUCGCGGAGUGGUAU [Exclusion - Arginine B (Freestyle 5)]
Fulfilled
UGAAAGUAGGGAAGGAGCGCUACAACAUGAGGAUCACCCAUGUUAUGAGGAUCACCCAUGUGGCAGGUAGGUCGCCCAAAACAUG [Same State Arginine B]
Fulfilled
ACGCUGAUUGAUUACAAUCAGCGAAAAGAUACCAGUGGGUAAUCCCACCCUUGGCAGCUUAAACUUGAGGAUCACCCAGGUGGUA [TheoAS 17 #MS2Right #BothOrNeither #AlternativeMS2]
Fulfilled
ACAUGAGGAUCACCCAUGUGAUGGCGCGAUACCAGCUGAUCCCGUGGCCCUUGGCAGCGUCCGGUGUGGUCCGGCGGGUGGGACG [khkmullin]
Not fulfilled
GGACUAACCAGAAGGAGCGGCACGCAGAAACUGCAAAAUCCUCCACACGAGGAUCACCCGUGUCAGGUAGGUCGCUGGUUAGUCG
Not fulfilled

Decide: apparent KD of MS2 coat protein of GGGUACAUCGCGGCCGCCACUCAUGUAAAUGCAUGAGGAUCACCCAUGUCGAUGGAGACAUCGGAGAGGACCGGGUGAUGUACCG >= 60 nM? Fulfilled

Decide: apparent KD of MS2 coat protein of UUUUAGCAUCGAAGGAGCGCUGGUAGGUGACACAUGAGGAUCACCCAUGUGCUCCUUGCCGAGCAGGUAGGUCGCGAUGCUAUUU [SSAB NP+V+V2 #8] >= 60 nM? Not fulfilled

Is apparent KD of MS2 coat protein for AAUCGUAAGGCGGCCGCCACUACACAUGAGGAUCACCCAUGUCUCGCGGGCUUGCGUUGGGAUAGUAGGACCGGGCCAGUAAUAA [Exclusion - Tryptophan B (Freestyle 13)] at or above 60 nM? Not fulfilled

API: above_or_equal(metric=apparent KD of MS2 coat protein, cutoff=60 nM) for item CGCCACAUGAGGAUCACCCAUGUAAUGGCGCGAGGACCGGUACGGCCGCCACUCGCCUGGCAGUGAGCGCAUGCGGCCUGGGUAU [Exclusion Tryp A GF9] Not fulfilled
